The following compounds are shown together with reported pIC50 values.
Target: Prostaglandin G/H synthase 2 (Homo sapiens)
Sequence (P35354 whole entry): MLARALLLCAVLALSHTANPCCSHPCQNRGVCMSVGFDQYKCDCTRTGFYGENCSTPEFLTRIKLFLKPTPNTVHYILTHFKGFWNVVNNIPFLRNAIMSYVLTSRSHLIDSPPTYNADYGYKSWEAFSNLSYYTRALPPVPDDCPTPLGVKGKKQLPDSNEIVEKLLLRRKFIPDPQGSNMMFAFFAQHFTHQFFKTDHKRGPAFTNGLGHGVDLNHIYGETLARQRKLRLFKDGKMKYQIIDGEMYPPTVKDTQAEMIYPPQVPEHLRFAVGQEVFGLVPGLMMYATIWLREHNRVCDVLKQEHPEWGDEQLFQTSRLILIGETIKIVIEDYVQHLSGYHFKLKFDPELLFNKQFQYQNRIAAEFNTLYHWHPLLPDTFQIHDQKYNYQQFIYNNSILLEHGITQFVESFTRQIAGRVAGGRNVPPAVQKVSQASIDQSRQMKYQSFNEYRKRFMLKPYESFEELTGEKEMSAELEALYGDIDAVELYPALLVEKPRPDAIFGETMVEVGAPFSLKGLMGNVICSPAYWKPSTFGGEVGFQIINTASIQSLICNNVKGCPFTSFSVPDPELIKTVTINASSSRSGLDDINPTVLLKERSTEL
Test: Inhibition of COX-2 (unknown origin) by Enzyme immune assay
Friendly reminder that pIC50 comes from taking -log10 of the concentration in mol/L.

As a guide, the following entries are already answered.
Lab note: measured pIC50 of COc1ccnc(Nc2nn3c(SC)c(C#N)c(O)nc3c2C#N)c1 was 5.95

Lab note: measured pIC50 of COc1ccc(/C(N)=N/OC(=O)C(C)c2ccc3cc(OC)ccc3c2)cc1 (configuration not stated) was 8.19

Lab note: measured pIC50 of COc1ccc2cc(C(C)C(=O)ON=C(N)c3ccc4c(c3)OCO4)ccc2c1 (configuration not stated) was 8.19

Continuing:
Lab note: measured pIC50 of COc1ccc2cc(C(C)C(=O)O/N=C(\N)c3ccc(Cl)cc3)ccc2c1 (configuration not stated) was 8.19

Lab note: measured pIC50 of Cc1ccc(Cl)c(Nc2ccccc2C(=O)O)c1Cl [MECLOFENAMATE SODIUM] was 8.25

Lab note: measured pIC50 of COc1ccc2cc(C(C)C(=O)O/N=C(\N)c3ccc(OC)c(OC)c3)ccc2c1 (configuration not stated) was 8.19

Lab note: measured pIC50 of COc1ccc2cc(C(C)C(=O)ON=C(N)c3ccc(-c4ccccc4)c(-c4ccccc4)c3)ccc2c1 (configuration not stated) was 8.75
